Quick reference for reverse-splicing fitness among some variants
B1: Azoarcus group I ribozyme (parent)
chain: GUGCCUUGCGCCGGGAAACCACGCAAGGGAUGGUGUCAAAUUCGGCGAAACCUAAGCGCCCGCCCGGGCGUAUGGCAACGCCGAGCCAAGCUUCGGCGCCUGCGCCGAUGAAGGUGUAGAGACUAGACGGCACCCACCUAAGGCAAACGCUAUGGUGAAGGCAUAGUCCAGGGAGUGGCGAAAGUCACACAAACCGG

Variants of: B1
TEST METHOD NOTES: reverse-splicing fitness (ratio to wild type); higher = more active; in vitro selection; Mg2+ level not given
Please give the numeric answer without any surrounding text.

Known reverse-splicing fitness results, listed for orientation:
C82G A111U A120G A145C C150G C169G U176G	0.00464
C82G A145U C169A U176A	0.00756
C82A A111C A120U A145U C150A C169A U176A	0.00258

Q. Can you look up the measured reverse-splicing fitness of C82G A145G C150G C169U U176C for me?
A. 0.0131

Q. Next up: A120C A145C C150U U176G
A. 0.137

Q. Same question, C82A A111C A120G U176G this time
A. 0.00584

Q. Please answer likewise for C82A A111G A120G A145U C150U C169G U176C
A. 0.0137

Q. Another variant to look at: C82G A111C C150A C169A
A. 0.011

Q. Now give it for C82U A111U A120U A145G C169A U176G too.
A. 0.00171

Q. Can you check C82U A111U A120G A145U C169U U176C next?
A. 0.0132

Q. What about C82U A111G A120U A145C C150G C169U U176G ?
A. 0.00181

Q. Same lookup for C82A A111C A120U A145C C150U C169G , please.
A. 0.00378

Q. Continue with A120G A145U C150A U176A
A. 0.0378

Q. Another variant: C82A A111C A120C A145G C150A C169A
A. 0.0106

Q. What about this variant? A111C A120U A145C C150U C169U U176G
A. 0.00251

Q. // same read-out, input: C82U A111U A120U A145G C169G U176A
A. 0.00271

Q. Repeat for the following variant: C82U A111C A120U A145C C150A C169U U176C
A. 0.00249

Q. Same lookup for C82U A120U A145U C150G U176G , please.
A. 0.00253

Q. Query C82G A111G A120G A145C C150G C169G U176G next
A. 0.00523

Q. Check C82A A111U A145G C150G C169G U176C too.
A. 0.0133

Q. Please answer likewise for C82A A111G A120C C150A U176C
A. 0.0223

Q. Same again, this time with C82U A111U A120C A145C C150G C169U U176A
A. 0.0108
